Biological target: NR1/NR2B (Homo sapiens (Human))
Assay: Cell assay: FDSS Ca2+ influx inhibition in HEK293 cells expressing NR1/NR2B
Conditions: read-out: Binned Activity
pIC50: −log10 of the molar value.
test_readout: pIC50

According to the records, this compound O=C(CN1CC2CC(Cc3ccccc3)CC2C1)c1ccc(O)c(F)c1 (stereo not shown) displays pIC50 of > 7.00

====

Examples of compounds with documented IC50 follow.
Target: NR1/NR2B (Homo sapiens (Human), UniProt Q05586+Q13224)
Sequence (Q13224 27-1484, other chains not shown): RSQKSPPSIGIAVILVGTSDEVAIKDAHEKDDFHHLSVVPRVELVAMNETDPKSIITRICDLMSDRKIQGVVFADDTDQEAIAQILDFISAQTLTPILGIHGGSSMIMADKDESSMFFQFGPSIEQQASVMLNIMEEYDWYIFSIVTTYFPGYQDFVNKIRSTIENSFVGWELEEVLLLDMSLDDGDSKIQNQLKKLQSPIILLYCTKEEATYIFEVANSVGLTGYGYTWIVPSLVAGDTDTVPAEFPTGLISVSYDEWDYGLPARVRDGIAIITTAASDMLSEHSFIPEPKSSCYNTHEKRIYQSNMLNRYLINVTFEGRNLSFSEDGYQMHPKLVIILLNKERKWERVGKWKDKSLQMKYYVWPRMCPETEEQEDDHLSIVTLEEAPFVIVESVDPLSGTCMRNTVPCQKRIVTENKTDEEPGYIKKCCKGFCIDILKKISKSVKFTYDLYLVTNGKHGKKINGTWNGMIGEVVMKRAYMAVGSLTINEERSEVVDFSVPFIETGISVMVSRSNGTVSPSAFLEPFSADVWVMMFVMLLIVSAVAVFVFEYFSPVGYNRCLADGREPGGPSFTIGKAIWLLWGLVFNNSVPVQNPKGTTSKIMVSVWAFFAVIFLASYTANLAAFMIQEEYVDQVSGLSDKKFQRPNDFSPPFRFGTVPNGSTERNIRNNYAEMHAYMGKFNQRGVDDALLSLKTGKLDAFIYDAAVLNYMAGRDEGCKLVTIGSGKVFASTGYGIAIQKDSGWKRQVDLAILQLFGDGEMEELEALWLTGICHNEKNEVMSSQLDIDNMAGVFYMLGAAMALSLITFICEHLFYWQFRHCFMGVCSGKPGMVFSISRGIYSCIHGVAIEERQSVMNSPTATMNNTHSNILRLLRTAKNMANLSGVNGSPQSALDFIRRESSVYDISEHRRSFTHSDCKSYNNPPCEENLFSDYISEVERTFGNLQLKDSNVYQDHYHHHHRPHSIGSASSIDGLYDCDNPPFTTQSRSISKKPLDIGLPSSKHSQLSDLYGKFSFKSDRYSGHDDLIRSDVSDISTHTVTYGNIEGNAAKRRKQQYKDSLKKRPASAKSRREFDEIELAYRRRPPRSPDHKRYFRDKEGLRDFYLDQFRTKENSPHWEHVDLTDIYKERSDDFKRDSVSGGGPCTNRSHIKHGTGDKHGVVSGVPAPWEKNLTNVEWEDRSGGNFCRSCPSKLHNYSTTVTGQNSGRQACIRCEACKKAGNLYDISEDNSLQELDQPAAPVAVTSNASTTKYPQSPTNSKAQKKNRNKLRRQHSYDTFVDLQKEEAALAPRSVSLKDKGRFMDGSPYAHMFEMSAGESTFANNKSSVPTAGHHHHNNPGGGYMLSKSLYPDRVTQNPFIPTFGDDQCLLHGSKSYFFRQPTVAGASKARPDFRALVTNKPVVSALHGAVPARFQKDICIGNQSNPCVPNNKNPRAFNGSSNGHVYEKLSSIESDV
Experiment: Cell assay: FDSS Ca2+ influx inhibition in HEK293 cells expressing NR1/NR2B;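 further: Fluo-8 Ca2+ signal read on Hamamatsu FDSS 6000 after glutamate, glycine and Ca2+ challenge following 10 min compound preincubation, end/baseline fluorescence ratio compared with MK801 control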
Conditions: Binned Activity, HEK293 cells expressing NR1/NR2B, Ca2+ influx; binned NR2B NAM IC50

Worked examples follow.
[[record]]
compound = "COc1cccc([C@]2(O)C[C@H]3CN(C(=O)Nc4cccc(Cl)c4)C[C@H]3C2)c1"
experimental_value = "> 10 µM"

[[record]]
compound = "Oc1ccc(C(O)CN2C[C@@H]3C[C@@](O)(CCc4ccccc4)C[C@@H]3C2)cc1 (mixture of isomers)"
experimental_value = "> 10 µM"

[[record]]
compound = "CC(C)(C)C(=O)Nc1ccc(C(=O)CN2C[C@@H]3C[C@@](O)(Cc4ccccc4)C[C@@H]3C2)cn1"
experimental_value = "> 10 µM"

[[record]]
compound = "O=C(CN1C[C@H]2C[C@H](Cc3ccccc3)C[C@H]2C1)c1ccc(O)c(F)c1"
experimental_value = "< 0.1 µM"


The compound listed as `O=C(CN1C[C@@H]2C[C@@](O)(CC3CC3)C[C@@H]2C1)c1ccc(O)cn1` has a reported IC50 of > 10 µM

For this compound ( `O=C(CN1C[C@@H]2C[C@@](O)(Cc3ccccc3)C[C@@H]2C1)c1ccc2[nH]nnc2c1` ), measured IC50 is > 10 µM

Per the records, this compound ( COc1cccc([C@]2(O)C[C@H]3CN(CC(O)c4ccccc4)C[C@H]3C2)c1 (mixture of isomers) ) has IC50 equal to > 10 µM

Origin of the recorded values: patent US10052306B2
